# System: Ehrlich ascites tumor
# PROTOCOL_DETAILS: Activity against Ehrlich Ascites Tumor
# Type: in vivo, Female CF1 mice
# CONDITION_SUMMARY: single i.p. dose, 24 h after tumor inoculation
ENDPOINT_LABEL: Therapeutic Index (LD50/ED90)

O=C([O][Ti+2][O]C(=O)C(Cl)(Cl)Cl)C(Cl)(Cl)Cl.c1cc[cH-]c1.c1cc[cH-]c1 = 5,5
Cl.Cl.Nc1ccc([S][Ti]([S]c2ccc(N)cc2)([CH]2C=CC=C2)[CH]2C=CC=C2)cc1 = 4,3
O=C(O)C=CC(=O)[O][Ti+2][O]C(=O)C=CC(=O)O.c1cc[cH-]c1.c1cc[cH-]c1 = 3,8

# input Suppose we examine the molecule `Cl.Nc1ccc([S][Ti]([Cl])([CH]2C=CC=C2)[CH]2C=CC=C2)cc1` ; what Therapeutic Index (LD50/ED90) value has been reported?
# output 4,4
